assay: in vivo; settings: male, Polish Landrace x Pietrain, pig, po, 10 ug/kg BW, obestatin concentration in the blood plasma
Where no end group is shown, it is not given here.

- substance: "FNAPFDVGIKLSGAQYQQHGRAL-NH2 [obestatin]"
  level at 1 h, ng/mL: 0.475

###

assay: in vivo; conditions: male, Polish Landrace x Pietrain, pig, po, 10 ug/kg BW, obestatin concentration in the blood plasma
Where no end group is shown, it is not given here.

- substance: "FNAPFDVGIKLSGAQYQQHGRAL-NH2 [obestatin]"
  display_unit: "ng/mL"
  level at 0.5 h: 0.413

###

test: in vivo; conditions: male, Polish Landrace x Pietrain, pig, po, 15 ug/kg BW, obestatin concentration in the blood plasma
Where no end group is shown, it is not given here.

- substance: "FNAPFDVGIKLSGAQYQQHGRAL-NH2 [obestatin]"
  display_unit: "ng/mL"
  level at 1 h: 0.45
